Measured melting transition Tm (solid-liquid crystalline), listed per entry.
# assay-details: DSC of hydrated cationic lipid dispersions and binary phase diagrams
# Assay type: physicochemical
# test-settings: hydrated dispersions; DSC heating 30° C./h
reported-property: melting transition Tm (solid-liquid crystalline) (°C)

| compound | observed-measurement |
| --- | --- |
| CCCCCCCCCCCCCCCC(=O)OC[C@H](COP(=O)(OCC)OCC[N+](C)(C)C)OC(=O)CCCCCCCCCCCCCCC (stereo partly shown) | 42 |
| CCCCCCCCCCCCCC[N+](C)(C)CCCCCCCCCCCCCC.[Br-] [diC14DAB, Ditetradecyldimethylammonium-bromide] | 26 |
| CCCCCCCCCCCCCC(=O)OC[C@H](COP(=O)(OCC)OCC[N+](C)(C)C)OC(=O)CCCCCCCCCCCCC (stereo partly shown) | 24 |
